Source listed as the Human Domainome abundance scans (Beltran et al. 2025).

B1: Gamma-crystallin C, residues 91 to 170; numbered along this chain, P07315 (parent)
chain: RLYEREDHKGLMMELSEDCPSIQDRFHLSEIRSLHVLEGCWVLYELPNYRGRQYLLRPQEYRRCQDWGAMDAKAGSLRRV

# Variants of: B1
# procedure.text: abundance fitness (aPCA) (normalised: wild type 0, dead -1); higher = more abundant; growth selection in yeast, the domain comes from the species named
# condition.notes: Homo sapiens
// reported abundance fitness for each item listed
Respond numerically, and do not add a unit to the figure.

Per the record, C19V has abundance fitness of -0.43

Per the record, M12T has abundance fitness of -0.464

Per the record, Q59L has abundance fitness of -0.438

Per the record, L56S has abundance fitness of -0.957

---
Per the record, E4N has abundance fitness of -0.261

Per the record, F26R has abundance fitness of -0.886

Per the record, D24K has abundance fitness of -0.256

Per the record, Q23S has abundance fitness of -0.145

Per the record, V80F has abundance fitness of -0.1

Per the record, E17N has abundance fitness of -0.477
